Entries and their measured % mycelium growth relative to the control follow.
Tested on: Phytophthora megasperma
Assay: Kirby-Bauer disk diffusion test, Phytophthora megasperma
Conditions: Phytophthora megasperma; V8 medium
Procedure: The microbiological tests were carried out by applying Kirby-Bauer Disk Diffusion Susceptibility Test Protocol for antimicrobial activity. […] The performance of the embodiments of the present inventions and their mixtures enriched with millbase (MFA) was analysed against the appropriate reference substance, i.e., a commercial product containing the analogue active substance with the same concentration. […]
Field format: number, assumed %, no unit text.

Compound	Meas value
N#Cc1c[nH]cc1-c1cccc2c1OC(F)(F)O2 [Fludioxonil (250)]	100
O=C(NCCc1ncc(C(F)(F)F)cc1Cl)c1ccccc1C(F)(F)F [Fluopyram (500)]	65
COC=C(C(=O)OC)c1ccccc1Oc1cc(Oc2ccccc2C#N)ncn1 [Azoxystrobin (250)]	70

Now look at this entry.
Query Cc1ccc(-c2c(Cl)nc(C#N)n2S(=O)(=O)N(C)C)cc1 [Cyazofamid (80)] yields % mycelium growth relative to the control of 100

* * *

Entries and their measured EFFICACY W (Abbot) follow.
test system: Monilinia fructigena; assay: Kirby-Bauer disk diffusion test, Monilinia fructigena; details: control W=0, no growth W=100
I'd appreciate a reply containing only the number, no unit.

Some solved entries appear below for comparison.
Compound	EFFICACY W (Abbot)
O=[N+]([O-])c1cc(C(F)(F)F)c(Cl)c([N+](=O)[O-])c1Nc1ncc(C(F)(F)F)cc1Cl	100
O=C(NCCc1ncc(C(F)(F)F)cc1Cl)c1ccccc1C(F)(F)F	70

Query "N#Cc1c[nH]cc1-c1cccc2c1OC(F)(F)O2" yields EFFICACY W (Abbot) of 39

Query O=C1C2CC=CCC2C(=O)N1SC(Cl)(Cl)Cl (centres unmarked) yields EFFICACY W (Abbot) of 67

Query "COC=C(C(=O)OC)c1ccccc1Oc1cc(Oc2ccccc2C#N)ncn1" yields EFFICACY W (Abbot) of 100

* * *

tested on: Phytophthora cactorum; experiment: Kirby-Bauer disk diffusion test, Phytophthora cactorum; design: concentration or dose not given beside the values; conditions: V8 medium
Measure name: % mycelium growth relative to the control (%)
Field format: number, assumed %, no unit text.

Some solved entries appear below for comparison.
Smiles str	Display unit	Meas value
N#Cc1c[nH]cc1-c1cccc2c1OC(F)(F)O2	%	100
Cc1ccc(-c2c(Cl)nc(C#N)n2S(=O)(=O)N(C)C)cc1	%	63
O=[N+]([O-])c1cc(C(F)(F)F)c(Cl)c([N+](=O)[O-])c1Nc1ncc(C(F)(F)F)cc1Cl	%	33

Query "COC=C(C(=O)OC)c1ccccc1Oc1cc(Oc2ccccc2C#N)ncn1" yields % mycelium growth relative to the control of 33

Query "O=C(NCCc1ncc(C(F)(F)F)cc1Cl)c1ccccc1C(F)(F)F" yields % mycelium growth relative to the control of 72

* * *

tested on: Phytophthora megasperma; assay: Kirby-Bauer disk diffusion test, Phytophthora megasperma; settings: Phytophthora megasperma; control W=0, no growth W=100
Entries and their measured EFFICACY W (Abbot) follow.
I'd appreciate a reply containing only the number, no unit.

Some solved entries appear below for comparison.
Smiles str	Meas value
COC=C(C(=O)OC)c1ccccc1Oc1cc(Oc2ccccc2C#N)ncn1	30
N#Cc1c[nH]cc1-c1cccc2c1OC(F)(F)O2	0

Field EFFICACY W (Abbot) (system: Phytophthora megasperma) for entry "O=C(NCCc1ncc(C(F)(F)F)cc1Cl)c1ccccc1C(F)(F)F" = 35

Field EFFICACY W (Abbot) (system: Phytophthora megasperma) for entry "Cc1ccc(-c2c(Cl)nc(C#N)n2S(=O)(=O)N(C)C)cc1" = 0

* * *

Tested on: Alternaria infectoria/alternata
Assay: Kirby-Bauer disk diffusion test, Alternaria infectoria/alternata
Conditions: V8 medium
Description: The performance of the embodiments of the present inventions and their mixtures enriched with millbase (MFA) was analysed against the appropriate reference substance, i.e., a commercial product containing the analogue active substance with the same concentration. The prepared solutions were applied on the paper antibiograms. […] As a result, the zones where the fungal growth was inhibited have been measured and compared respectively with the control sample and the analogue active substance sample. […]
Entries and their measured % mycelium growth relative to the control follow.
Field format: number, assumed %, no unit text.

Query "O=C(NCCc1ncc(C(F)(F)F)cc1Cl)c1ccccc1C(F)(F)F" yields % mycelium growth relative to the control of 55

Query "COC=C(C(=O)OC)c1ccccc1Oc1cc(Oc2ccccc2C#N)ncn1" yields % mycelium growth relative to the control of 40

Query "N#Cc1c[nH]cc1-c1cccc2c1OC(F)(F)O2" yields % mycelium growth relative to the control of 0

Query "O=[N+]([O-])c1cc(C(F)(F)F)c(Cl)c([N+](=O)[O-])c1Nc1ncc(C(F)(F)F)cc1Cl" yields % mycelium growth relative to the control of 40

* * *

tested on: Venturia inaegualis; assay: Kirby-Bauer disk diffusion test, Venturia inaequalis; settings: Venturia inaegualis; V8 medium
Measure name: % mycelium growth relative to the control (%)
Field format: number, assumed %, no unit text.

Some solved entries appear below for comparison.
Compound	Assayed system	Meas value
O=C1C2CC=CCC2C(=O)N1SC(Cl)(Cl)Cl (stereo not shown)	Venturia inaegualis	38
N#Cc1c[nH]cc1-c1cccc2c1OC(F)(F)O2	Venturia inaegualis	38
COC=C(C(=O)OC)c1ccccc1Oc1cc(Oc2ccccc2C#N)ncn1	Venturia inaegualis	0

Now look at this entry.
Query "O=C(NCCc1ncc(C(F)(F)F)cc1Cl)c1ccccc1C(F)(F)F" yields % mycelium growth relative to the control of 0

* * *

Entries and their measured % mycelium growth relative to the control follow.
tested on: Monilinia fructigena; assay: Kirby-Bauer disk diffusion test, Monilinia fructigena; details: V8 medium
Field format: number, assumed %, no unit text.

Some solved entries appear below for comparison.
Compound	Meas value
N#Cc1c[nH]cc1-c1cccc2c1OC(F)(F)O2 [Fludioxonil (250)]	61
O=[N+]([O-])c1cc(C(F)(F)F)c(Cl)c([N+](=O)[O-])c1Nc1ncc(C(F)(F)F)cc1Cl [fluazinam (200)]	0
O=C1C2CC=CCC2C(=O)N1SC(Cl)(Cl)Cl (centres unmarked) [Captan (1500)]	33
O=C(NCCc1ncc(C(F)(F)F)cc1Cl)c1ccccc1C(F)(F)F [Fluopyram (500)]	30

Now look at this entry.
Query COC=C(C(=O)OC)c1ccccc1Oc1cc(Oc2ccccc2C#N)ncn1 [Azoxystrobin (250)] yields % mycelium growth relative to the control of 0

* * *

Entries and their measured mycelium growth follow.
test system: Alternaria infectoria/alternata; test: Kirby-Bauer disk diffusion test, Alternaria infectoria/alternata; details: V8 medium, control 8.6 cm
Field format: number, assumed cm, no unit text.

Some solved entries appear below for comparison.
Smiles str	Display unit	mycelium growth
N#Cc1c[nH]cc1-c1cccc2c1OC(F)(F)O2	cm	0
COC=C(C(=O)OC)c1ccccc1Oc1cc(Oc2ccccc2C#N)ncn1	cm	3.4
O=C(NCCc1ncc(C(F)(F)F)cc1Cl)c1ccccc1C(F)(F)F	cm	4.7

Now look at this entry.
Query "O=[N+]([O-])c1cc(C(F)(F)F)c(Cl)c([N+](=O)[O-])c1Nc1ncc(C(F)(F)F)cc1Cl" yields mycelium growth of 3.4

Where these numbers come from: patent US20260344673A1
